TARGET: T1, Human CD3eg linker (human)
T1 construct: Single chain: epsilon and gamma subunits of human CD3 joined by a 29-mer linker, Flag-tag at the C-terminus; also called recombinant human CD3
T1 chain: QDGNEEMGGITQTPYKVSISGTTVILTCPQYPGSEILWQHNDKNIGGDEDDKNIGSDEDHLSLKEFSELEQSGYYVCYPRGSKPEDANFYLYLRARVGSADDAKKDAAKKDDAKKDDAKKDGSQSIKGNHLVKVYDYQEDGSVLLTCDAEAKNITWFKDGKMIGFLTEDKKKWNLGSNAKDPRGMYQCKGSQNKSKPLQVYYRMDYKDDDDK
PROCEDURE_SUMMARY: Biacore SPR, vs template H183/L072
// values below are reported fold change of affinity
// note: answer is a bare numeric in fold

Please review the entries below; each comes with its answer.
>>> reported("H183/L072 VH Y59P (antibody, name in Kabat numbering, V domains shown) VH: QVQLVESGGGLVQPGRSLRLSCAASGFTFSNAWMHWVRQAPGKGLEWVAQIKDKGNAYAAYPAPSVKGRFTISRDDSKNSIYLQMNSLKTEDTAVYYCHYVHYASASTVLPAFGVDAWGQGTTVTVSS VL: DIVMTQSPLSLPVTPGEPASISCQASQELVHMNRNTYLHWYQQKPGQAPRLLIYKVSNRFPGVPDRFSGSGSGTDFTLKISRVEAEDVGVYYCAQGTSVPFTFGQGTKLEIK")
0.7
>>> reported("H183/L072 VH V95A (antibody, name in Kabat numbering, V domains shown) VH: QVQLVESGGGLVQPGRSLRLSCAASGFTFSNAWMHWVRQAPGKGLEWVAQIKDKGNAYAAYYAPSVKGRFTISRDDSKNSIYLQMNSLKTEDTAVYYCHYAHYASASTVLPAFGVDAWGQGTTVTVSS VL: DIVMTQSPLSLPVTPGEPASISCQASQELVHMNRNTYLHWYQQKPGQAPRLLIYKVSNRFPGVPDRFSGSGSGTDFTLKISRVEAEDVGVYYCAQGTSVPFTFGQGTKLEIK")
0

(Q) Quick one: fold change of affinity of H183/L072 VH A54I (antibody, name in Kabat numbering, V domains shown) VH: QVQLVESGGGLVQPGRSLRLSCAASGFTFSNAWMHWVRQAPGKGLEWVAQIKDKGNIYAAYYAPSVKGRFTISRDDSKNSIYLQMNSLKTEDTAVYYCHYVHYASASTVLPAFGVDAWGQGTTVTVSS VL: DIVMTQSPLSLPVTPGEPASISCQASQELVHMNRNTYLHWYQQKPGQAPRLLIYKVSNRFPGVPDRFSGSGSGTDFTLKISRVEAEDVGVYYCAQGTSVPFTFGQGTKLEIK ?
(A) 0.7

src = patent US20210388087A1
